- METHOD: Measurement of logP values by HPLC on reversed phase columns (EEC directive 79/831 Annex V.A8)
- Type: physicochemical
- CONDITION DESCRIPTION: pH 2.7, 0.1% formic acid in water / acetonitrile gradient 10% to 95%
Overview of recorded Log p for various compounds
No unit in the answer, please; the number alone is enough.

Some compounds with known Log p results, for comparison:
{"COMPOUND": "Cc1cc(C(=NOCc2csc(N)n2)c2nnnn2C)ccc1F", "Log p": 1.75}
{"COMPOUND": "Cn1nnc(C(=NOCc2csc(N)n2)c2ccc(F)c(Oc3ccccc3)c2)n1", "Log p": 2.23}

// sample Cc1cc(C(=NOCc2csc(NCCC3CCCCC3)n2)c2nnnn2C)ccc1F , its Log p was 4.36

// sample Cc1ccc(C(=NOCc2cccc(N)n2)c2nnnn2C)cc1F , its Log p was 1.52

// sample Cc1cc(F)cc(C(=NOCc2cccc(NC(=O)CC(C)C)n2)c2nnnn2C)c1 (single isomer, unassigned) [Example 157] , its Log p was 3.71

// sample Cn1nnnc1C(=NOCc1cccc(N)n1)c1ccc(C(F)(F)F)cc1F (single isomer, unassigned) [Example 141] , its Log p was 1.82

// sample CCC#Cc1nc(CON=C(c2ccc(F)c(C)c2)c2nnnn2C)cs1 , its Log p was 4.09

These data points were gathered from patent US20100286173A1.
